Attribution: ChEMBL document CHEMBL3286385

Recorded below: pIC50, system Prostaglandin G/H synthase 1 (Ovis aries).
pIC50: −log10 of the molar value.
Assay endpoint: pIC50

Smiles string	Value reported
NS(=O)(=O)c1ccc(-n2nc(C(=O)Nc3ccc(Cl)cc3)nc2-c2ccccc2)cc1	< 3.00
NS(=O)(=O)c1ccc(-n2nc(C(=O)NCc3ccccc3)nc2-c2ccccc2)cc1	< 3.00
CC(C)NC(=O)c1nc(-c2ccccc2)n(-c2ccc(S(N)(=O)=O)cc2)n1	< 3.00

====

# Lookup of reported inhibition in vivo at 280 µmol/kg keyed by entry
System: Rattus norvegicus
Assay: Antiinflammatory activity against albino rat assessed as inhibition of carrageenan-induced paw edema at 0.28 mmol/kg, po administered 30 mins prior to carrageenan challenge measured after 3 hrs relative to control
Type: functional

Smiles string	Experimental system	inhibition in vivo at 280 µmol/kg
COc1ccc(NC(=O)c2nc(-c3ccccc3)n(-c3ccc(S(N)(=O)=O)cc3)n2)cc1OC	Rattus norvegicus	72%
COC(=O)c1nc(-c2ccccc2)n(-c2ccc(S(N)(=O)=O)cc2)n1	Rattus norvegicus	69%
Cc1ccc(-c2cc(C(F)(F)F)nn2-c2ccc(S(N)(=O)=O)cc2)cc1	Rattus norvegicus	69%
